experiment: Quantitative High-Throughput drug screen in 47 multiple myeloma cell lines against the NCATS MIPE library collection: FR4_PLB cell viability assay (AID 1918924; also: nearly all actives have a fitted effect of over 35% in size); conditions: FR4_PLB myeloma cells viability, CellTiter-Glo ATP, 48 h; series mostly up to 45.8 µM
Results filed as inconclusive are left out. Calls of active or inactive are those of the source. Calls follow the shape of the dose curve; as a rule, active = well fitted cell-killing curve with a large enough effect; inconclusive = small, poorly fitted or top-dose-only effect, or effect the other way; inactive = no such curve, though single readings can be large or run the other way.
Field 'call' accepts active, inactive

Observe how each entry below is paired with its result.
                                   molecule  category_label
0           O=C(NCCCCN1CCOCC1)c1cc2ccccc2o1        inactive
1  Fc1ccc(C(c2ccc(F)cc2)N2CCN(CC=Cc3ccccc3)CC2)cc1        inactive

Per the records of this test, what outcome belongs to `COc1ccc(Cn2ccc3ccc(C(=O)NO)cc32)cc1` ? inactive

# outcome recorded in this test, key = `CN(CC=CC#CC(C)(C)C)Cc1cccc2ccccc12` inactive

Query: recorded result category for CC(NCCc1ccc(O)cc1)C(O)c1ccc(O)cc1 (stereo not given) in this test inactive

Dear colleague, could you share the recorded outcome for `COc1cc(CNC(=O)CCCCC=CC(C)C)ccc1O` when you have a moment? inactive

Can you look up the reported call for `CCOC(=O)N1CCN([N+]([O-])=NOc2cc(ON=[N+]([O-])N3CCN(C(=O)OCC)CC3)c([N+](=O)[O-])cc2[N+](=O)[O-])CC1` for me? active

Each molecule tested received a call. Report the one for `CCCCOCCOc1nc(-c2ccc(C(=O)O)c(F)c2)sc1C` . inactive

Recorded test call requested for `COc1cc2c(cc1Cc1cccc(Cl)c1F)c(=O)c(C(=O)O)cn2[C@H](CO)C(C)C` active

###

experiment: Quantitative High-Throughput drug screen in 47 multiple myeloma cell lines against the NCATS MIPE library collection: KMS12PE_JCRB cell viability assay (AID 1918972); details: KMS12PE myeloma viability, CellTiter-Glo ATP, 48 h; series mostly up to 45.8 µM; also: nearly all actives have a fitted effect of over 30% in size
Inconclusive results are not listed. The source made the active and inactive calls. Calls follow the shape of the dose curve; as a rule, active = well fitted cell-killing curve with a large enough effect; inconclusive = small, poorly fitted or top-dose-only effect, or effect the other way; inactive = no such curve, though single readings can be large or run the other way.
Your reply should match one of these outcome classes. active, inactive

Example results:
>>> print(df.to_string())
                                   compound  category_label
0  CCOC(=O)N1c2ccc(C(F)(F)F)cc2[C@@H](N(Cc2cc(C(F)(F)F)cc(C(F)(F)F)c2)C(=O)OC)C[C@H]1CC        inactive
1  CC[C@H](CC#N)OC(=O)N[C@@H](C)c1cccc(NC(=O)Nc2ccc(-c3cnco3)c(OC)c2)c1          active
2  O=C(c1ccc(C(=O)N2CCC(N3CCCC3)CC2)c(Nc2ccccc2)c1)N1CCC(N2CCCC2)CC1        inactive
3     NCC1CCC(C(=O)O)CC1 (stereo not given)        inactive

Given `COc1c(C)c2c(c(O)c1CC=C(C)CCC(=O)OCCN1CCOCC1)C(=O)OC2` , state the outcome it received in this test. active

###

Tested on: CRL-7250
Experiment: Cytotoxic Profiling of Annotated Libraries Using Quantitative High-Throughput Screening (AID 1296008); also: nearly all actives have a fitted effect of over 60% in size
Details: Five cell lines viability, CellTiter-Glo ATP luminescence, 48-72 h
Experimental: Cell-based phenotypic screening is a commonly used approach to discover biological pathways, novel drug targets, chemical probes and high-quality hit-to-lead molecules. […] A pintool (Kalypsys) was used to transfer 23 nL of compound solution to the 1536-well assay plates. […] Plates were left at room temperature for 10 min before imaging the ATP-coupled luminescence using a ViewLux microplate imager (PerkinElmer, Waltham, MA).
Records with an inconclusive call do not appear. Calls of active or inactive are those of the source. The call rests on the fitted dose curve; in most records, active means well fitted inhibition curve with a large enough effect; inconclusive means small, poorly fitted or top-dose-only effect; inactive means flat fitted curve, though single readings scatter.
Respond only with the outcome that fits, drawn from active, inactive

Item Smiles	Category Label
CSc1cccc(Nc2ncc3cc(-c4c(Cl)cccc4Cl)c(=O)n(C)c3n2)c1	active
Cc1nc(NC(=O)N2CCC[C@@H]2C(N)=O)sc1-c1csc(C(C)(C)C)n1	active
O=C1Nc2ccc(I)cc2C1=Cc1cc(Br)c(O)c(Br)c1	inactive

Kindly review the next molecule as well.
Given `CC[C@]1(O)C[C@H]2CN(CCC3=c4ccccc4=N[C]3[C@@](C(=O)OC)(c3cc4c(cc3OC)N(C)[C@H]3[C@@](O)(C(N)=O)[C@H](O)[C@]5(CC)C=CCN6CC[C@]43[C@@H]65)C2)C1` , state the outcome it received in this test. active
